The measured values listed here are drawn from PubChem BioAssay (NCI).

System: NCI-H522 lung
Test: NCI-60 one-dose screen, 48 h
Conditions: 10 µM unless noted
The panel holds about 83,000 compounds, 20% with a hit somewhere; the sample as a whole holds those more often. Calls of active or inactive are those of the source. How the source made its calls: active means growth percent below 10; inactive means the rest.
Outcome (select one): 1 for active, 0 for inactive

Field: example entries. Status: answers known.
- MOLECULE: "Cc1cc(C)c2c(c1)N1OC(C2)C[C@H]1/C=C/c1ccccc1 (some centres undefined)"
  LABEL: 0
- MOLECULE: "COc1ccc(C(=O)COc2cccc(/C=C3\\Oc4ccc5ccccc5c4C3=O)c2)cc1"
  LABEL: 1
- MOLECULE: "Cc1cccc(Cl)c1NC(=O)c1ccc2nc(NC(=O)NC3CC(C)(C)NC(C)(C)C3)sc2c1"
  LABEL: 0
- MOLECULE: "O=C(Nc1ccncc1)C(=O)c1cn(S(=O)(=O)c2cccc(F)c2)c2ccccc12"
  LABEL: 1
- MOLECULE: "COC(=O)CCC1=C(C)C(C)=N/C1=C\\c1[nH]c(-c2ccc[nH]2)cc1OC"
  LABEL: 1

Name the outcome recorded for CN(C)c1ccc2[nH]c3c(C(N)=O)cc(=O)c(=O)c=3oc2c1 in the assay.
0

Name the outcome recorded for CC(=O)O[C@H]1C(=O)[C@@]2(C)C([C@H](OC(=O)c3ccccc3)[C@]3(O)C[C@H](OC(=O)[C@H](O)[C@@H](NC(=O)c4ccccc4)c4ccccc4)C(C)=C1C3(C)C)[C@]1(OC(C)=O)CO[C@@H]1C[C@@H]2O (some centres undefined) in the assay.
1

Name the outcome recorded for O=c1[nH]c(Cl)nc2c1cnn2-c1ccccc1 in the assay.
0

Name the outcome recorded for Nc1ccc(C2=Nc3cccc4cccc(c34)S2)cc1 in the assay.
0
